Listed below: normalized growth values for each entry.
EXPERIMENT_NOTES: chemical genetic growth profiling, strain panel (AID 1159580);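 also: tested at 20 µM; growth read once vehicle control cultures reached saturation at 30 °C; 1 = growth at the plate median or of vehicle wells; lower values mean less growth of the strain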
EXPERIMENTAL_SETUP: S. cerevisiae deletion strains, growth OD, locus YCL061C, strain MRC1, hits give low values
Screen size: about 5,500 compounds; about 2,000 (36%) were called active. Inconclusive results (about 18%) are left out. This is one part of the list.

Answered cases to consult:
[N-]=[N+]=CC(=O)OCC(N)C(=O)O (stereo unspecified) : 1.02 (inactive)
CCCCCn1c(Sc2ncc([N+](=O)[O-])s2)n[nH]c1=O : 0.67 (active)
Cc1cc(C(F)(F)F)c(C#N)c(=O)[nH]1 : 1 (inactive)
CC(C)(C)C(=O)N1CCN(c2ncccc2C(F)(F)F)CC1 : 0.998 (inactive)
Cn1c(=O)c2[nH]c(C3CCCC3)nc2n(C)c1=O : 0.993 (inactive)

# ---- query compound ----
Bench note: what normalized growth did CN(N=O)C(=O)N[C@@H]1[C@@H](O)[C@H](O)[C@@H](CO)O[C@@H]1O show?
1.02 (inactive)

Data credit: PubChem BioAssay AID1159580
